- Test system: HepG2
- experimental details: cell viability relative to DMSO; higher = less toxic
- condition set: 72 h; 10 nM
List of cell viability values.
Report the figure in % without appending any unit label.

Some solved cases for reference:
[[record]]
compound = "CCCCCCCCNC(=O)/C(C#N)=C/c1cn(CCCN(C)C)c2ccccc12 [dynole-34-2]"
reported_measurement = 93.4

[[record]]
compound = "CC(C)(N)c1nc(-c2ccc(OC(F)(F)F)cc2)c[nH]1"
reported_measurement = 107

[[record]]
compound = "Cn1ccc2cc(NC(=O)Nc3cccnc3)ccc21"
reported_measurement = 102


Name the reported cell viability value associated with the compound c1ccc2c(CC3=NCCN3)cccc2c1 [naphazoline]
102

Name the reported cell viability value associated with the compound CN(CCCN1c2ccccc2CCc2ccccc21)CC(=O)c1ccc(Cl)cc1 [lofepramine]
105

---

- Test system: A549-ACE2 infected with SARS-CoV-2
- experimental details: cell count relative to DMSO; higher = less toxic
- condition set: 30 µM; 24 h
measurement name: cell count (%)
Report the figure in % without appending any unit label.

Some solved cases for reference:
[[record]]
molecule_smiles = "Cn1c(NC[C@@H](N)Cc2ccccc2)nc(-c2ccncc2)c(-c2ccc3ccccc3c2)c1=O"
reported_measurement = 106

[[record]]
molecule_smiles = "Cc1nnc2n1-c1sc(CCC(=O)N3CCOCC3)cc1C(c1ccccc1Cl)=NC2"
reported_measurement = 103

[[record]]
molecule_smiles = "Cc1[nH]cnc1-c1ccc(Cl)cc1"
reported_measurement = 94


Shift focus to the following entry.
Name the reported cell count value associated with the compound `CC(C)n1cnc2c(NCCc3ccc(O)cc3)nc(-c3csc4ccccc34)nc21`
45

---

- Test system: Vero E6
- experimental details: relative viability EC50 (midpoint between 100% and the lowest measured viability); higher = less toxic
- condition set: 72 h
List of relative viability EC50 values.

Some solved cases for reference:
[[record]]
compound = "Cc1ccc(OC[C@@H](O)[C@H](C)NC(C)C)c2c1CCC2 (racemic) [ICI-118,551]"
measurement_name = "relative viability EC50"
reported_measurement = "> 10 µM"

[[record]]
compound = "NC(=O)c1cccc(-c2cccc(OC(=O)NC3CCCCC3)c2)c1 [URB597]"
measurement_name = "relative viability EC50"
reported_measurement = "> 10 µM"

[[record]]
compound = "Cc1cc(C)c(N)c(C#Cc2cccc(F)c2)n1"
measurement_name = "relative viability EC50"
reported_measurement = "> 10 µM"

[[record]]
compound = "C/C(=C\\CNc1ncnc2[nH]cnc12)CO [zeatin]"
measurement_name = "relative viability EC50"
reported_measurement = "> 10 µM"


Shift focus to the following entry.
Name the reported relative viability EC50 value associated with the compound O=C1CN2Cc3c(ccc(Cl)c3Cl)N=C2N1 [anagrelide]
> 10 µM

---

List of cell viability values.
- Tested on: Calu-3
- experimental details: cell viability relative to DMSO; higher = less toxic
- condition set: 72 h; 1 nM
Report the figure in % without appending any unit label.

[[record]]
compound = "Oc1cc(Cl)ccc1Oc1ccc(Cl)cc1Cl"
subject_of_test = "Calu-3"
reading_unit = "%"
reported_measurement = 97.7


Name the reported cell viability value associated with the compound `O=C1OC2(c3ccccc31)c1cc(I)c(O)c(I)c1Oc1c2cc(I)c(O)c1I`
102

Name the reported cell viability value associated with the compound `CN1CCN(C(=O)CN[C@@H]2C[C@H]2c2ccc(OCc3ccccc3)cc2)CC1`
89.9

Name the reported cell viability value associated with the compound CCCCCCCCCC(=O)O[C@H]1CC[C@H]2[C@@H]3CCC4=CC(=O)CC[C@@H]4[C@H]3CC[C@]12C [Nandrolone decanoate]
94.1

Name the reported cell viability value associated with the compound `CC1(C)C(=O)NC2=C1C(=O)C(=O)c1ccccc12`
98

Name the reported cell viability value associated with the compound `CCOC(=S)SSC(=S)OCC`
101

Name the reported cell viability value associated with the compound `Cc1cc(NC(=O)Nc2ccc(F)c(F)c2)n(-c2ccccc2)n1`
103

Name the reported cell viability value associated with the compound `Cc1nc(Nc2ncc(C(=O)Nc3c(C)cccc3Cl)s2)cc(N2CCN(CCO)CC2)n1`
95.1

Name the reported cell viability value associated with the compound `c1ccc(CNc2ncnc3[nH]cnc23)cc1`
99.9

Name the reported cell viability value associated with the compound `CCN(CC)CCNC(=O)c1ccccc1I`
98.8

Name the reported cell viability value associated with the compound CNC1CC(c2ccc(Cl)c(Cl)c2)c2ccccc21 (stereo not given)
102

Name the reported cell viability value associated with the compound `OCCn1cc(-c2ccc3c(c2)CC/C3=N\O)c(-c2ccncc2)n1`
102

Name the reported cell viability value associated with the compound `Fc1ccc(CN2CCC(Nc3ccc(C(F)(F)F)nn3)CC2)cc1F`
112

Name the reported cell viability value associated with the compound `CC(C)C[C@@H](C(=O)N[C@@H](Cc1ccc(OCc2ccccc2)cc1)C(=O)NC(C)(C)C)N(C)Cc1ccc(C(C)(C)C)cc1`
93.4

Name the reported cell viability value associated with the compound `CN(C)CCCCC(=O)Nc1ccc(NC(=S)NC(=O)c2ccc(C(C)(C)C)cc2)cc1`
91.1

Name the reported cell viability value associated with the compound `N#Cc1ccc(N2N=C3c4ccc(C(=O)O)cc4CC[C@@H]3[C@@H]2C2CCCC2)cc1Cl`
101

Name the reported cell viability value associated with the compound `CC(C)Cn1cnc2c(N)nc3ccccc3c21`
103

Name the reported cell viability value associated with the compound CCS(=O)(=O)N(C)[C@H]1c2cc(C#N)ccc2OC(C)(C)[C@@H]1O [chromanol-293B-(-)-[3R,4S]]
105

Name the reported cell viability value associated with the compound `C#C[C@]1(O)CC[C@H]2[C@@H]3CCc4cc(OC5CCCC5)ccc4[C@H]3CC[C@@]21C`
97.9

Name the reported cell viability value associated with the compound `COc1ccc(Cc2nccc3cc(OC)c(OC)cc23)cc1OC`
91.3

Name the reported cell viability value associated with the compound `O=C(Nc1ccc(O)cc1)c1ccccc1O`
105

Name the reported cell viability value associated with the compound `Cc1ccccc1NC(=O)Nc1ccc(CC(=O)N(C)[C@@H](CC(C)C)C(=O)NCC[C@H](NC(=O)[C@@H]2CCCN2S(=O)(=O)c2cc(Cl)cc(Cl)c2)C(=O)O)cc1`
104

Ref: the supplement of paper PMC13380429
